System: HGC-27
Assay: Cytotoxicity against human HGC27 cells assessed as growth inhibition after 72 hrs by MTT assay
Type: functional, cell-based
Conditions: HGC-27, 72 h
Reported property: IC50 (µM)
Respond numerically; units are µM and should not be typed.

Molecular string	Target or system	IC50, µM
C=C(c1ccc(C(=O)O)cc1)c1cc2c(cc1C)C(C)(C)CCC2(C)C	HGC-27	32.7

Q. Suppose we examine the compound C=C(c1ccc(C(=O)NO)cc1)c1cc2c(cc1C)C(C)(C)CCC2(C)C ; what IC50 value has been reported?
A. 8.6

----------
Tested on: A549
Experiment: Cytotoxicity against human A549 cells assessed as growth inhibition after 72 hrs by MTT assay
Assay type: functional, cell-based
Details: A549, 72 h
Reported property: pIC50
# reply with the number alone; pIC50 is -log10 of concentration in mol/L

Q. Fill blank: measured pIC50 of the molecule C=C(c1ccc(C(=O)NO)cc1)c1cc2c(cc1C)C(C)(C)CCC2(C)C is ____.
A. 5.03
